pIC50: −log10 of the molar value.
The next entries give measured pIC50 for ROCK2 (Homo sapiens (Human), UniProt O75116).

Some entries whose results are on file:
>>> recorded_measurement("COc1cc(NC2CCN(c3ccc(-c4cn[nH]c4)cc3Cl)C2=O)ccc1F (single isomer, unassigned)")
"5.66 to 7.00"
>>> recorded_measurement("O=C1C(Nc2cccc(OC(F)F)c2)CCN1c1ccc(-c2cn[nH]c2)c(F)c1 (single isomer, unassigned)")
"7.00 to 8.00"
>>> recorded_measurement("COc1cccc(NC2CCN(c3ccc(-c4cn[nH]c4)nc3)C2=O)c1 (single isomer, unassigned)")
"7.00 to 8.00"
>>> recorded_measurement("COc1ccc(NC2CCN(c3ccc(-c4cn[nH]c4)cc3)C2=O)cc1F (single isomer, unassigned)")
"5.66 to 7.00"
>>> recorded_measurement("COc1cc(F)cc(NC2CCN(c3ccc(-c4cn[nH]c4)cc3)C2=O)c1 (single isomer, unassigned)")
"> 8.00"

Quick batch: pIC50 for everything below.
1. CCOc1cc(N2CCC(Nc3cc(OC)ccc3F)C2=O)ccc1-c1cn[nH]c1 (single isomer, unassigned)
2. COc1cc(NC2CCN(c3ccc(-c4cn[nH]c4)c(C(F)(F)F)c3)C2=O)ccc1F (single isomer, unassigned)
3. COc1nc(N2CCC(Nc3cccc(OC(F)F)c3)C2=O)ccc1-c1cn[nH]c1 (single isomer, unassigned)
4. CCc1nc(N2CCC(Nc3cccc(OC)c3)C2=O)ccc1-c1cn[nH]c1 (single isomer, unassigned)
5. COc1ccc(NC2CCN(c3ccc(-c4cn[nH]c4)c(OC)c3)C2=O)c(F)c1 (single isomer, unassigned)
6. COc1cc(F)cc(NC2CCN(c3ccc(-c4cn[nH]c4)c(OC)n3)C2=O)c1 (single isomer, unassigned)
7. COc1cc(NC2CCN(c3ccc(-c4cn[nH]c4)c(C#N)c3)C2=O)ccc1F (single isomer, unassigned)

Result:
1. 5.66 to 7.00
2. 5.66 to 7.00
3. > 8.00
4. > 8.00
5. 5.66 to 7.00
6. > 8.00
7. 5.66 to 7.00

Consider the following items and state reported pIC50 for each.
1. COc1cccc(NC2CCN(c3ccc(-c4cn[nH]c4)cc3Cl)C2=O)c1 (single isomer, unassigned)
2. COc1cccc(NC2CCN(c3ccc(-c4cn[nH]c4)cn3)C2=O)c1 (single isomer, unassigned)

Result:
5.66 to 7.00
> 8.00

Provide the reported pIC50 of each entry below, same order.
1. COc1nc(N2CCC(Nc3cccc(OCC4CC4)c3)C2=O)ccc1-c1cn[nH]c1 (single isomer, unassigned)
2. COc1cc(F)cc(NC2CCN(c3ccc(-c4cn[nH]c4)cc3Cl)C2=O)c1 (single isomer, unassigned)
3. COc1cc(F)cc(NC2CCN(c3ncc(-c4cn[nH]c4)cc3F)C2=O)c1 (single isomer, unassigned)
4. O=C1C(Nc2ccccc2)CCN1c1ccc(-c2cn[nH]c2)c(F)c1 (single isomer, unassigned)

Result:
["> 8.00", "5.66 to 7.00", "5.66 to 7.00", "> 8.00"]

Could I get pIC50 for every one of these entries?
1. COc1cc(N2CCC(Nc3c(F)cccc3OC)C2=O)ccc1-c1cn[nH]c1 (single isomer, unassigned)
2. COc1c(F)cccc1NC1CCN(c2ccc(-c3cn[nH]c3)cc2F)C1=O (single isomer, unassigned)

Result:
["7.00 to 8.00", "5.66 to 7.00"]

Origin of measurements: patent US10112929B2
